Just for reference, ChEMBL document CHEMBL1201862 is where these values come from.

target: Cytochrome P450 2C9 (Homo sapiens)
Sequence (P11712 whole entry): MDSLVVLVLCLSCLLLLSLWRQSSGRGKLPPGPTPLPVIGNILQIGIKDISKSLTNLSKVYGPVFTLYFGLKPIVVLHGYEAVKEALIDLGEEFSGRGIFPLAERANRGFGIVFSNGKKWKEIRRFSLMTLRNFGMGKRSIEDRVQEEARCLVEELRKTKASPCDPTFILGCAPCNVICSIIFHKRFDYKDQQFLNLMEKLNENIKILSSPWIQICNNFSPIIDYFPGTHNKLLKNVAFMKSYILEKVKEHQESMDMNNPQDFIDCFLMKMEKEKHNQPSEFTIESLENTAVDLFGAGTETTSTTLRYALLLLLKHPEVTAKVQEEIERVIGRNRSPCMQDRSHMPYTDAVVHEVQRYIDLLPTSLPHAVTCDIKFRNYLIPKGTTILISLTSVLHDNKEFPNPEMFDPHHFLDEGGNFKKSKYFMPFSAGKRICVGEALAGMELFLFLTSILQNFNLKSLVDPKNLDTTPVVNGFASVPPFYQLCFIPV
quantity measured: AC50

- compound: "O=C(O)/C(=C\\c1ccncc1)c1cccc2ccccc12"
  AC50: "3.16 µM (inconclusive)"

Bench note, Cytochrome P450 2C9 (Homo sapiens): entry `Cc1ccc(S(=O)(=O)CCCS(=O)(=O)c2ccc(C)cc2)cc1` , its AC50 = 5.01 µM (inconclusive)

Considering CCCCCCCCCCCCCCCC[N+](C)(C)CCN(Cc1ccc(OC)cc1)c1ncccn1 [THONZONIUM] , its AC50 with Cytochrome P450 2C9 (Homo sapiens) was recorded as 15.8 µM (inconclusive)

Tested system Cytochrome P450 2C9 (Homo sapiens); AC50 recorded for CCCCNC(=O)C1C2C=CC3(CN(Cc4ccccc4Cl)C(=O)C13)O2 (stereo unspecified) was 17.8 µM (inconclusive)

Record `COc1ccc(Oc2nc(C)cc(C)c2S(C)(=O)=O)cc1` ; system Cytochrome P450 2C9 (Homo sapiens); AC50 = 15.8 µM (inconclusive)

====

target: Cytochrome P450 3A4 (Homo sapiens, UniProt P08684);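 note: CYP3A4 tested as one member of a cytochrome P450 panel screen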
Sequence (P08684 whole entry): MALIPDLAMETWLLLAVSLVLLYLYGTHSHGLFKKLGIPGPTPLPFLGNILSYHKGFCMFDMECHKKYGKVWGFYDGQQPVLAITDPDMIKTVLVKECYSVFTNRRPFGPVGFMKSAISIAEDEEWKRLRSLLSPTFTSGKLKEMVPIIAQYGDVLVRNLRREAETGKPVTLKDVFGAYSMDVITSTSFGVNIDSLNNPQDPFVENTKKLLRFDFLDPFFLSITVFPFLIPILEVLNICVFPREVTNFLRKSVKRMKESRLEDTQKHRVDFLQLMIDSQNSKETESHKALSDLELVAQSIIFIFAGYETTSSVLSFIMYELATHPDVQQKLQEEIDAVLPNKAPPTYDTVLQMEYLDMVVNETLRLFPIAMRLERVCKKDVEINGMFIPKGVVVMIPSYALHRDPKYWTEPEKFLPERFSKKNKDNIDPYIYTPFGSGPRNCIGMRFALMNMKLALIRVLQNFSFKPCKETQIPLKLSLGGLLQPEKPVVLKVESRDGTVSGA
Recorded AC50 by entry

- compound structure: "COc1ccc(Oc2ncc3ncc(=O)n(C4CC4)c3n2)cc1"
  AC50: "25.1 µM (inconclusive)"
- compound structure: "Cn1cccc1C(=O)N1CCC2(CCCN(C(c3ccccc3)c3ccccc3)C2)CC1"
  AC50: "6.31 µM (inconclusive)"
- compound structure: "CN(C)C(=O)c1cn(N(C)c2ncc(C(F)(F)F)cc2Cl)c(=O)c2ccccc12"
  AC50: "10 µM (inconclusive)"
- compound structure: "CC(=O)[C@@H]1CC[C@@H]2[C@@H]3C[C@H](C)C4=CC(=O)CC[C@@]4(C)[C@H]3[C@H](O)C[C@]21C"
  AC50: "7.94 µM (inconclusive)"
- compound structure: "O=C(CCCCCN1C(=O)c2ccccc2C1=O)NCc1ccccn1"
  AC50: "25.1 µM (inconclusive)"
- compound structure: "Cc1cc(N(CN2CCCC2=O)C(=O)c2ccc(F)cc2)no1"
  AC50: "3.98 µM (inconclusive)"
- compound structure: "Cc1cc(N2CCN(c3nc4ccccc4s3)CC2)n2ncnc2n1"
  AC50: "39.8 µM (inconclusive)"
- compound structure: "COc1ccc(Oc2nccc(-c3ccc(F)cc3)c2C#N)cc1"
  AC50: "12.6 µM (inconclusive)"
- compound structure: "CCCCN1CSC(=S)N(Cc2ccccc2)C1"
  AC50: "3.16 µM (inconclusive)"

The value of AC50 measured for the compound `O=C(c1ccco1)N1CCN(C(=O)C2(S(=O)(=O)c3ccc(Cl)cc3)CC2)CC1` turned out to be 25.1 µM (inconclusive)

====

target: Polyadenylate-binding protein 1 (Homo sapiens, UniProt P11940); test: MLLE domain peptide-binding blockers, IC50 – biochemical, fluorescence polarization, FITC-PAM2 peptide, dose response (AID 602259); type: functional; details: read-out: IC50_Mean
Sequence (P11940 whole entry, the tested form may be a part): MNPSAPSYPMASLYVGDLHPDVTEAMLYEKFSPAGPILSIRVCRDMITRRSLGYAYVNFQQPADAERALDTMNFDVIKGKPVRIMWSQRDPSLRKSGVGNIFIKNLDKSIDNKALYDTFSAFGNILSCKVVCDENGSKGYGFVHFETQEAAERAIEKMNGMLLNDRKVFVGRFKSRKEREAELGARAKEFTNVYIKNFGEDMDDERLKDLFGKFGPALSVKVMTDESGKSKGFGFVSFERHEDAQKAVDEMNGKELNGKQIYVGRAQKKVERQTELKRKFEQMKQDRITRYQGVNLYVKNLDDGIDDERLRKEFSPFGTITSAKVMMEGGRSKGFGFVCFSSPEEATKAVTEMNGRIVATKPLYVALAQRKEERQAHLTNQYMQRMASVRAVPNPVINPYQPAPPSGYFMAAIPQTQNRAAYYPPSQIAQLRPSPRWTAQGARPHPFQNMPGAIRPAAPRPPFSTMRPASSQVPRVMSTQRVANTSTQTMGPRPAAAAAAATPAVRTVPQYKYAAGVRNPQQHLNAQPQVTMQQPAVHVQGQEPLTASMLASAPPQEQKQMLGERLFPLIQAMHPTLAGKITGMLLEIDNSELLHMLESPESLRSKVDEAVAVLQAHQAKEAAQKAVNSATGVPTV
The source made the active and inactive calls.
Recorded IC50 values for a group of compounds are listed next.

What the record says about `O=C(CSc1nc2c(c(=O)n1-c1ccc(F)cc1)SCC2)NCc1ccco1` : IC50 is > 66 µM (inactive)

====

molecular target: Genome polyprotein (dengue virus type 2); test: flavivirus cap methylation enzyme inhibition – biochemical, confirmation dose response, primary screen (AID 588689); format: functional
Calls of active or inactive are those of the source.
Measured IC50 accompanies every entry in the list below.

Solved cases below.
- compound: "O=C1C(Cl)=C(N2CCN(CCO)CC2)C(=O)c2c(O)ccc(O)c21"
  assay value: "4.58 µM (active)"
- compound: "Nc1c(S(=O)(=O)O)cc(NC(=O)c2ccccc2)c2c1C(=O)c1ccccc1C2=O"
  assay value: "34.3 µM (active)"
- compound: "Cc1oc2cc([N+](=O)[O-])c(O)c([N+](=O)[O-])c2c1C(=O)c1ccc(Br)cc1"
  assay value: "45.2 µM (active)"
- compound: "C=CCOc1cccc(C2C(C(=O)c3cc4ccccc4o3)=C(O)C(=O)N2c2cc(C)on2)c1 (stereo not given)"
  assay value: "48.6 µM (active)"

Record `CCOc1cc(Br)cc(C(c2c(C(=O)O)[nH]c3ccccc23)c2c(C(=O)O)[nH]c3ccccc23)c1O` ; system Genome polyprotein (dengue virus type 2); IC50 = 18.7 µM (active)

====

The reader will find reported IC50 values listed item by item below.
Target: Leucine aminopeptidase (Plasmodium falciparum 3D7, UniProt Q8IL11)
Sequence (Q8IL11 whole entry): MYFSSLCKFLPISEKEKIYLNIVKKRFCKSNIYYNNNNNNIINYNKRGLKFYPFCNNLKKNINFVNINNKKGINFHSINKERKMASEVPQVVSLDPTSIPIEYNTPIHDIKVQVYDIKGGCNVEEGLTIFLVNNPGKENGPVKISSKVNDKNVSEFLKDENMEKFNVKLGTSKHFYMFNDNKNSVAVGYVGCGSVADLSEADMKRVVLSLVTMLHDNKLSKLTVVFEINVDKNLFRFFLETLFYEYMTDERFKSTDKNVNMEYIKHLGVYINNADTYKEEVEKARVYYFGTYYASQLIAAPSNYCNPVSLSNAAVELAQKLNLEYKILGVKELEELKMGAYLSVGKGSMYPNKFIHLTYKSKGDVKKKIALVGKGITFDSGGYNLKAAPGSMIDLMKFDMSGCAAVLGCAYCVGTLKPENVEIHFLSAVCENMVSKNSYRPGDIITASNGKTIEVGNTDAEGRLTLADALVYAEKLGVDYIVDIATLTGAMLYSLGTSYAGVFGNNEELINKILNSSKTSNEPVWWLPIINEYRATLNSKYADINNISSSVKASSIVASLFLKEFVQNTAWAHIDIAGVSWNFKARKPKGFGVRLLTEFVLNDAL
Assay: P. falciparum M17LAP inhibitors, primary screen, biochemical, fluorogenic H-Leu-NHMec substrate, 1536-well (AID 1619)
Type: functional
The source made the active and inactive calls.

Example entries and their recorded answers appear below.
- molecule: "O=C(NCc1ccco1)C(=O)c1cn(CC(=O)N2CCCCCC2)c2ccccc12"
  assay system: "Leucine aminopeptidase (Plasmodium falciparum 3D7, UniProt Q8IL11)"
  IC50: "11.6 µM (active)"
- molecule: "CC1=NNC(=O)C1CCC(=O)N/N=C(/C)c1ccc([N+](=O)[O-])cc1 (stereo not given)"
  assay system: "Leucine aminopeptidase (Plasmodium falciparum 3D7, UniProt Q8IL11)"
  IC50: "80.6 µM (active)"

IC50 reported for this molecule `COc1ccc(Nc2ncnc3nc[nH]c23)cc1OC` : 48.5 µM (active)

Sample `O=c1cc(-c2ccc(Cl)cc2)[nH][nH]1` ; IC50 observed: < 1 µM (active)

Field IC50 (entry Cc1cccc(Nc2nnc(SC3CCOC3=O)s2)c1C (stereo not given) ) reads 2.23 µM (active)

====

test: Luminescence Cell-Based Dose Retest to Confirm Inhibitors of Cancer Stem Cells. [Related pubchem assays (depositor defined):AID2717, AID2721]; assay type: functional; settings: Homo sapiens
Activity calls are given as the source filed them.
quantity measured: AC50

- compound: "O=C(/C=C/c1ccccc1[N+](=O)[O-])c1ccccc1Br"
  AC50: "7.14 µM (active)"
- compound: "CC(=O)Nc1ccc(OCC(O)CN2CCN(c3ccc(C)c(Cl)c3)CC2)cc1 (stereo not given)"
  AC50: "7.01 µM (active)"
- compound: "O=C(N/N=C/c1ccc(Cl)c([N+](=O)[O-])c1)c1cc(-c2ccccc2)nc2ccccc12"
  AC50: "2.08 µM (active)"
- compound: "Cc1cc(C(=O)CN2C(=O)C(=O)N(Cc3ccccc3)C2=O)c(C)n1Cc1ccccc1"
  AC50: "2.54 µM (active)"
- compound: "COC(=O)c1ccccc1NC(=O)c1nc(S(=O)(=O)Cc2ccccc2)ncc1Cl"
  AC50: "1.84 µM (active)"
- compound: "Oc1nc(CN2CC=C(c3ccccc3)CC2)nc2scc(-c3ccccc3)c12"
  AC50: "2.56 µM (active)"

Note to self: AC50 recorded for `Cc1cc(O)c(C(C)C)cc1C1(c2cc(C(C)C)c(O)cc2C)OC(=O)c2ccccc21` was 1.71 µM (active)

For record `Cc1ccc(OCC(=O)NNC(=S)NC(=O)c2cccs2)c(C)c1` the listed AC50 is 9.13 µM (active)

// recorded AC50 for `CC(C)c1nc2sc3ccccc3c(=O)c2c(=O)n1Cc1ccccc1` : 0.796 µM (active)

Data point: `Oc1cc(C(F)(F)F)nc2c(OC(F)(F)F)cccc12` ; AC50 = 22.4 µM (active)

====

molecular target: Small ubiquitin-related modifier 1 (Homo sapiens, UniProt P63165); experiment: SUMO1 protein-protein binding blockers, potency – biochemical, FRET, dose response (AID 624383); format: functional; conditions: read-out: IC50_Mean
Sequence (P63165 whole entry): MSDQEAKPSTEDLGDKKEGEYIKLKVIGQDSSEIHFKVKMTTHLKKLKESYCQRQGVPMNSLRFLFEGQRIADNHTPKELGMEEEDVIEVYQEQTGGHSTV
Calls of active or inactive are those of the source.
Would you mind answering with one of these outcomes? YES for active, NO for inactive

- compound structure: "Cc1ccc(Cn2c(CCNc3nc(-c4ccc(C)cc4)cs3)nc3cc(C(=O)NCCCO)ccc32)cc1"
  classification: "YES"
- compound structure: "Nc1cccc2c(O)cc(S(=O)(=O)O)cc12"
  classification: "YES"
- compound structure: "CC(C)(C)OC(=O)N1CCC(c2cc(O)n3ncc(C(=O)Nc4ccc(F)c(Cl)c4)c3n2)CC1"
  classification: "YES"

Moving on to the next compound.
Input line: Give the logged outcome of this assay for the following compound: `Nc1cccc2[nH]c(C(F)(F)F)nc12`
Output line: NO
